- Measurement Protocol: The drug is tested on WLS-027 corresponding to human gut metagenome with ENA study accession number: PRJEB37062 and ENA sample accession number: ERS12561744 for biotransformation under anaerobic condition. The drug concentrations were measured over 9 timepoints collected between 0 and 24 hours of incubation by liquid-chromatography-coupled mass spectrometry (LC–MS); further: call rule not given here
- Applied Conditions: 2 µM
Quantity: Bacterial Biotransformation

- Compound: "CN(C)C(=O)Oc1cccc([N+](C)(C)C)c1.[Br-] [NEOSTIGMINE BROMIDE]"
  Result: "Compound NOT metabolized"
- Compound: "COC1=C(OC)C(=O)C(CCCCCCCCCCO)=C(C)C1=O"
  Result: "Compound metabolized"
- Compound: "CCOc1ccc2nc(S(N)(=O)=O)sc2c1 [ETHOXZOLAMIDE]"
  Result: "Compound NOT metabolized"
- Compound: "Br.CN1CCC[C@@H]1Cc1c[nH]c2ccc(CCS(=O)(=O)c3ccccc3)cc12 [ELETRIPTAN HYDROBROMIDE]"
  Result: "Compound NOT metabolized"
- Compound: "C=CC[C@@H]1/C=C(\\C)C[C@H](C)C[C@H](OC)[C@H]2O[C@@](O)(C(=O)C(=O)N3CCCC[C@H]3C(=O)O[C@H](/C(C)=C/[C@@H]3CC[C@@H](O)[C@H](OC)C3)[C@H](C)[C@@H](O)CC1=O)[C@H](C)C[C@@H]2OC.O"
  Result: "Compound metabolized"
- Compound: "COc1ccccc1OCCNCC(O)COc1cccc2[nH]c3ccccc3c12 (stereo unspecified)"
  Result: "Compound metabolized"

* * *

- Measurement Protocol: The drug is tested on Z-021 corresponding to metagenome with ENA study accession number: PRJEB37062 and ENA sample accession number: ERS12561820 for biotransformation under anaerobic condition. The drug concentrations were measured over 9 timepoints collected between 0 and 24 hours of incubation by liquid-chromatography-coupled mass spectrometry (LC–MS)
- Applied Conditions: 2 µM
Quantity: Bacterial Biotransformation

- Molecule: "COC(=O)C(c1ccccc1)C1CCCCN1 (centres undefined) [METHYLPHENIDATE]"
  Result: "Compound metabolized"
- Molecule: "CC(C)C[C@H]1C(=O)N2CCC[C@H]2[C@]2(O)O[C@](NC(=O)[C@@H]3C=C4c5cccc6[nH]c(Br)c(c56)C[C@H]4N(C)C3)(C(C)C)C(=O)N12.CS(=O)(=O)O [BROMOCRIPTINE MESYLATE]"
  Result: "Compound metabolized"
- Molecule: "CC(C)(C)NCC(O)c1cc(Cl)c(N)c(Cl)c1 (centres undefined)"
  Result: "Compound NOT metabolized"
- Molecule: "CN(CCOc1ccc(CC2SC(=O)NC2=O)cc1)c1ccccn1.O=C(O)/C=C\\C(=O)O (centres undefined) [ROSIGLITAZONE MALEATE]"
  Result: "Compound NOT metabolized"
- Molecule: "CC(=O)SCC(Cc1ccccc1)C(=O)NCC(=O)OCc1ccccc1 (centres undefined)"
  Result: "Compound metabolized"
- Molecule: "CC[C@@]1(O)C(=O)OCc2c1cc1n(c2=O)Cc2cc3c(CN(C)C)c(O)ccc3nc2-1"
  Result: "Compound NOT metabolized"
- Molecule: "Cc1ccccc1C(OCCN(C)C)c1ccccc1.O=C(O)CC(O)(CC(=O)O)C(=O)O (centres undefined) [ORPHENADRINE CITRATE]"
  Result: "Compound metabolized"
- Molecule: "CC#C[C@]1(O)CC[C@H]2[C@@H]3CCC4=CC(=O)CCC4=C3[C@@H](c3ccc(N(C)C)cc3)C[C@@]21C"
  Result: "Compound NOT metabolized"
- Molecule: "CCN1CCCC1CNC(=O)c1cc(S(=O)(=O)CC)c(N)cc1OC (centres undefined) [AMISULPRIDE]"
  Result: "Compound NOT metabolized"

* * *

- Applied Conditions: human gut metagenome, 24 h, 2 µM

- Molecule: "CC1=C(CC(=O)O)c2cc(F)ccc2/C1=C\\c1ccc([S+](C)[O-])cc1 (stereo not given)"
  Bacterial Biotransformation: "Compound metabolized"
- Molecule: "COc1ccc(CN2CCNCC2)c(OC)c1OC.Cl.Cl [TRIMETAZIDINE DIHYDROCHLORIDE]"
  Bacterial Biotransformation: "Compound NOT metabolized"
- Molecule: "CC(N)C12CC3CC(CC(C3)C1)C2 (stereo not given) [RIMANTADINE]"
  Bacterial Biotransformation: "Compound NOT metabolized"
- Molecule: "C#C[C@]1(OC(C)=O)CC[C@H]2[C@@H]3CCC4=C/C(=N/O)CC[C@@H]4[C@H]3CC[C@@]21CC [NORGESTIMATE]"
  Bacterial Biotransformation: "Compound metabolized"
- Molecule: "CCOC(=O)[C@H](CCc1ccccc1)N[C@@H](C)C(=O)N1CCC[C@H]1C(=O)O.O=C(O)/C=C\\C(=O)O [ENALAPRIL MALEATE]"
  Bacterial Biotransformation: "Compound NOT metabolized"
- Molecule: "COc1ccc([C@@H]2Sc3ccccc3N(CCN(C)C)C(=O)[C@@H]2OC(C)=O)cc1 [DILTIAZEM]"
  Bacterial Biotransformation: "Compound metabolized"
- Molecule: "CN1CCN2c3ccccc3Cc3ccccc3C2C1 (stereo not given) [MIANSERIN]"
  Bacterial Biotransformation: "Compound NOT metabolized"
- Molecule: "Br.COc1ccc2c(c1)[C@]13CCCC[C@@H]1[C@H](C2)N(C)CC3.O [DEXTROMETHORPHAN HYDROBROMIDE]"
  Bacterial Biotransformation: "Compound metabolized"
- Molecule: "CC(C)(C)NC(=O)[C@H]1CC[C@H]2[C@@H]3CC[C@H]4NC(=O)C=C[C@]4(C)[C@H]3CC[C@]12C [FINASTERIDE]"
  Bacterial Biotransformation: "Compound metabolized"
- Molecule: "CSc1ccc2c(c1)C(N1CCN(C)CC1)Cc1ccccc1S2.O=C(O)/C=C\\C(=O)O (stereo not given)"
  Bacterial Biotransformation: "Compound NOT metabolized"
- Molecule: "CC(C)NCC(O)COc1ccc(CC(N)=O)cc1 (stereo not given) [ATENOLOL]"
  Bacterial Biotransformation: "Compound NOT metabolized"
- Molecule: "CCN(CC)CCNC(=O)c1ccc(NC(C)=O)cc1 [ACECAINIDE]"
  Bacterial Biotransformation: "Compound NOT metabolized"
- Molecule: "CC#C[C@]1(O)CC[C@H]2[C@@H]3CCC4=CC(=O)CCC4=C3[C@@H](c3ccc(N(C)C)cc3)C[C@@]21C [MIFEPRISTONE]"
  Bacterial Biotransformation: "Compound NOT metabolized"
- Molecule: "CN(C)CCOC(C)(c1ccccc1)c1ccccn1.O=C(O)CCC(=O)O (stereo not given) [DOXYLAMINE SUCCINATE]"
  Bacterial Biotransformation: "Compound NOT metabolized"
- Molecule: "CN1CCC[C@@H]1CCO[C@](C)(c1ccccc1)c1ccc(Cl)cc1.O=C(O)/C=C/C(=O)O [CLEMASTINE FUMARATE]"
  Bacterial Biotransformation: "Compound NOT metabolized"
- Molecule: "CN(C)C(=O)Oc1cc(OC(=O)N(C)C)cc(C(O)CNC(C)(C)C)c1 (stereo not given) [BAMBUTEROL]"
  Bacterial Biotransformation: "Compound metabolized"
- Molecule: "CCCC(C)(COC(N)=O)COC(=O)NC(C)C (stereo not given) [CARISOPRODOL]"
  Bacterial Biotransformation: "Compound metabolized"
- Molecule: "Cc1cc(C)cc(OCC2CNC(=O)O2)c1 (stereo not given) [METAXALONE]"
  Bacterial Biotransformation: "Compound metabolized"
- Molecule: "CC12CC3CC(C)(C1)CC(N)(C3)C2 [MEMANTINE]"
  Bacterial Biotransformation: "Compound NOT metabolized"
- Molecule: "CCOc1ccccc1OCCN[C@H](C)Cc1ccc(OC)c(S(N)(=O)=O)c1.Cl [TAMSULOSIN HYDROCHLORIDE]"
  Bacterial Biotransformation: "Compound NOT metabolized"

* * *

- Measurement Protocol: The drug is tested on Z-003 corresponding to pig gut metagenome with ENA study accession number: PRJEB37062 and ENA sample accession number: ERS12561803 for biotransformation under anaerobic condition. The drug concentrations were measured over 9 timepoints collected between 0 and 24 hours of incubation by liquid-chromatography-coupled mass spectrometry (LC–MS)
- Applied Conditions: 2 µM

- Compound: "CC(=O)Oc1ccc(C(c2ccc(OC(C)=O)cc2)c2ccccn2)cc1"
  Bacterial Biotransformation: "Compound metabolized"
- Compound: "O=C(O)CCC(=O)O.O=C(O[C@H]1CN2CCC1CC2)N1CCc2ccccc2[C@@H]1c1ccccc1 [SOLIFENACIN SUCCINATE]"
  Bacterial Biotransformation: "Compound metabolized"

* * *

- Measurement Protocol: The drug is tested on Z-005 corresponding to metagenome with ENA study accession number: PRJEB37062 and ENA sample accession number: ERS12561805 for biotransformation under anaerobic condition. The drug concentrations were measured over 9 timepoints collected between 0 and 24 hours of incubation by liquid-chromatography-coupled mass spectrometry (LC–MS)
- Applied Conditions: 2 µM

- Compound: "CCN1CCCC1CNC(=O)c1cc(S(=O)(=O)CC)c(N)cc1OC (stereo not given) [AMISULPRIDE]"
  Bacterial Biotransformation: "Compound NOT metabolized"
- Compound: "CC#C[C@]1(O)CC[C@H]2[C@@H]3CCC4=CC(=O)CCC4=C3[C@@H](c3ccc(N(C)C)cc3)C[C@@]21C [MIFEPRISTONE]"
  Bacterial Biotransformation: "Compound metabolized"
- Compound: "COc1ccc(Cc2nccc3cc(OC)c(OC)cc23)cc1OC [PAPAVERINE]"
  Bacterial Biotransformation: "Compound metabolized"
- Compound: "COc1ccc(/C=C/C(=O)Nc2ccccc2C(=O)O)cc1OC"
  Bacterial Biotransformation: "Compound metabolized"
- Compound: "CCOC(=O)[C@H](CCc1ccccc1)N[C@@H](C)C(=O)N1CCC[C@H]1C(=O)O.O=C(O)/C=C\\C(=O)O [ENALAPRIL MALEATE]"
  Bacterial Biotransformation: "Compound NOT metabolized"
- Compound: "CC1=C(CC(=O)O)c2cc(F)ccc2/C1=C\\c1ccc([S+](C)[O-])cc1 (stereo not given)"
  Bacterial Biotransformation: "Compound NOT metabolized"
- Compound: "C[C@]12C=CC(=O)C=C1CC[C@@H]1[C@@H]2C(=O)C[C@@]2(C)[C@H]1CC[C@]2(O)C(=O)CO [PREDNISONE]"
  Bacterial Biotransformation: "Compound NOT metabolized"
- Compound: "Br.COc1ccc2c(c1)[C@]13CCCC[C@@H]1[C@H](C2)N(C)CC3.O [DEXTROMETHORPHAN HYDROBROMIDE]"
  Bacterial Biotransformation: "Compound NOT metabolized"
- Compound: "Cc1ccccc1C(OCCN(C)C)c1ccccc1.O=C(O)CC(O)(CC(=O)O)C(=O)O (stereo not given) [ORPHENADRINE CITRATE]"
  Bacterial Biotransformation: "Compound NOT metabolized"
- Compound: "C[C@]12CCC(=O)C=C1[C@@H]1C[C@@H]1[C@H]1[C@@H]3[C@@H]4C[C@@H]4[C@@]4(CCC(=O)O4)[C@@]3(C)CC[C@@H]12 [DROSPIRENONE]"
  Bacterial Biotransformation: "Compound metabolized"
- Compound: "Nc1nnc(-c2cccc(Cl)c2Cl)c(N)n1 [LAMOTRIGINE]"
  Bacterial Biotransformation: "Compound NOT metabolized"
- Compound: "CC(C)c1nc(N(C)S(C)(=O)=O)nc(-c2ccc(F)cc2)c1/C=C/[C@@H](O)C[C@@H](O)CC(=O)[O-].CC(C)c1nc(N(C)S(C)(=O)=O)nc(-c2ccc(F)cc2)c1/C=C/[C@@H](O)C[C@@H](O)CC(=O)[O-].[Ca+2] [ROSUVASTATIN CALCIUM]"
  Bacterial Biotransformation: "Compound NOT metabolized"
- Compound: "CC[C@@]1(O)C(=O)OCc2c1cc1n(c2=O)Cc2cc3c(CN(C)C)c(O)ccc3nc2-1 [TOPOTECAN]"
  Bacterial Biotransformation: "Compound NOT metabolized"
- Compound: "CC(=O)O[C@]1(C(C)=O)CC[C@H]2[C@@H]3C=C(C)C4=CC(=O)CC[C@]4(C)[C@H]3CC[C@@]21C [MEGESTROL ACETATE]"
  Bacterial Biotransformation: "Compound metabolized"
- Compound: "CN1CCCCC1CCN1c2ccccc2Sc2ccc([S+](C)[O-])cc21.O=S(=O)(O)c1ccccc1 (stereo not given) [MESORIDAZINE BESYLATE]"
  Bacterial Biotransformation: "Compound metabolized"
